Below, each of the molecules is paired with its reported DR7 binding data value.
EXPERIMENTAL TARGET: DRB1*0701 (DR7) (Homo sapiens, UniProt P01903+P01911, A100R/A102G/A103Q/D57E/D86V/E43K/F76Y/K127E/L162R/M171V/P40G/Q125H/Q99D/R33Q/R42Y/R54Q/S133A/S66F/T210M/V115G/Y107V/Y59L/Y89S)
ASSAY OVERVIEW: HLA class II peptide binding assay, purified HLA
TEST PARAMETERS: Table XIX, DR supermotif peptides; unit not given

Before answering, review these 4 worked examples.
>  <SMILES>
CC(C)C[C@H](NC(=O)[C@H](CO)NC(=O)[C@H](C)NC(=O)[C@H](CC(N)=O)NC(=O)[C@@H](NC(=O)[C@@H]1CCCN1C(=O)[C@H](CC(C)C)NC(=O)[C@H](Cc1ccc(O)cc1)NC(=O)[C@@H](NC(=O)[C@@H](N)CC(C)C)[C@@H](C)O)[C@@H](C)O)C(=O)N[C@@H](CO)C(=O)N[C@@H](Cc1ccccc1)C(=O)N[C@@H](CC(C)C)C(=O)N[C@@H](CCC(N)=O)C(=O)N[C@@H](CC(=O)O)C(=O)O

>  <MEASURE>
DR7 binding data

>  <REPORTED RESULT>
0.3200

$$$$
>  <SMILES>
CSCC[C@H](NC(=O)[C@H](CC(=O)O)NC(=O)[C@@H](NC(=O)CN)[C@@H](C)O)C(=O)N[C@@H](CCCCN)C(=O)N[C@@H](CC(C)C)C(=O)N[C@@H](CCCNC(=N)N)C(=O)N[C@@H](CC(C)C)C(=O)N1CCC[C@H]1C(=O)N[C@@H](C)C(=O)N[C@@H](CO)C(=O)N1CCC[C@H]1C(=O)N[C@@H](CCC(=O)O)C(=O)N[C@H](C(=O)N[C@@H](Cc1c[nH]cn1)C(=O)O)[C@@H](C)O

>  <MEASURE>
DR7 binding data

>  <REPORTED RESULT>
−0.0013

$$$$
>  <SMILES>
CC[C@H](C)[C@H](NC(=O)[C@H](CCC(N)=O)NC(=O)[C@H](CCSC)NC(=O)[C@H](CS)NC(=O)[C@H](Cc1c[nH]c2ccccc12)NC(=O)[C@H](CC(N)=O)NC(=O)[C@H](CC(C)C)NC(=O)[C@@H](N)CC(C)C)C(=O)N[C@@H](C)C(=O)N[C@@H](CCCCN)C(=O)NCC(=O)N[C@@H](CCSC)C(=O)N[C@@H](CO)C(=O)N[C@@H](Cc1ccc(O)cc1)C(=O)N[C@@H](CC(C)C)C(=O)O

>  <MEASURE>
DR7 binding data

>  <REPORTED RESULT>
0.1200

$$$$
>  <SMILES>
CC[C@H](C)[C@H](NC(=O)[C@@H]1CCCN1)C(=O)N[C@@H](CCCCN)C(=O)N[C@@H](Cc1c[nH]c2ccccc12)C(=O)N[C@@H](CCSC)C(=O)N[C@@H](C)C(=O)N[C@@H](CC(C)C)C(=O)N[C@@H](CCC(=O)O)C(=O)N[C@@H](CO)C(=O)N[C@H](C(=O)N[C@@H](CC(C)C)C(=O)N[C@@H](CCCNC(=N)N)C(=O)N[C@@H](CCCNC(=N)N)C(=O)N[C@@H](CCCNC(=N)N)C(=O)N[C@@H](Cc1ccccc1)C(=O)O)[C@@H](C)CC

>  <MEASURE>
DR7 binding data

>  <REPORTED RESULT>
0.0078

$$$$

Now, please, on to the next molecule.
Field DR7 binding data (entry CC[C@H](C)[C@H](NC(=O)[C@H](CC(C)C)NC(=O)[C@H](C)NC(=O)[C@H](CC(C)C)NC(=O)CNC(=O)[C@H](CO)NC(=O)CNC(=O)[C@H](CC(C)C)NC(=O)[C@H](CCC(=O)O)NC(=O)[C@H](CCCNC(=N)N)NC(=O)[C@@H](N)CC(C)C)C(=O)N[C@@H](Cc1c[nH]cn1)C(=O)N[C@@H](Cc1c[nH]cn1)C(=O)N[C@@H](CC(N)=O)C(=O)N[C@H](C(=O)O)[C@@H](C)O ) reads −0.0013
